# System: PSMA-expressing LNCAP cancer xenografts
# test method notes: Biodistribution of ^68Ga-labeled PSMA-targeting tracers
# Assay type: in vivo, mice
# assay context: 1 h post-injection
Tissue (% ID/g): Adrenal glands values, listed per item
measured attribute: Tissue (% ID/g): Adrenal glands

compound	quantitative readout
O=C([O-])CN1CCN(CC(=O)[O-])CCN(CC(=O)NC[C@H]2CC[C@H](C(=O)N[C@@H](Cc3ccc4cc5ccccc5cc4c3)C(=O)NCCCC[C@H](NC(=O)N[C@@H](CCC(=O)O)C(=O)O)C(=O)O)CC2)CCN(CC(=O)[O-])CC1.[68Ga+3] [^68Ga-HTK03027]	3.55
O=C([O-])CN1CCN(CC(=O)[O-])CCN(CC(=O)NC[C@H]2CC[C@H](C(=O)N[C@@H](Cc3ccc4ccc5cccc6ccc3c4c56)C(=O)NCCCC[C@H](NC(=O)N[C@@H](CCC(=O)O)C(=O)O)C(=O)O)CC2)CCN(CC(=O)[O-])CC1.[68Ga+3] [^68Ga-HTK03029]	4.91
CCCCCC[C@H](NC(=O)[C@H]1CC[C@H](CNC(=O)CN2CCN(CC(=O)[O-])CCN(CC(=O)[O-])CCN(CC(=O)[O-])CC2)CC1)C(=O)NCCCC[C@H](NC(=O)N[C@@H](CCC(=O)O)C(=O)O)C(=O)O.[68Ga+3] [^68Ga-HTK03026]	1.84
O=C([O-])CN1CCN(CC(=O)[O-])CCN(CC(=O)NC[C@H]2CC[C@H](C(=O)N[C@@H](Cc3c4ccccc4cc4ccccc34)C(=O)NCCCC[C@H](NC(=O)N[C@@H](CCC(=O)O)C(=O)O)C(=O)O)CC2)CCN(CC(=O)[O-])CC1.[68Ga+3] [^68Ga-HTK03041]	8.90
